# Tested on: K98450-129-R-PDC complex spheroid growth, percent test/control
# experiment notes: Anticancer human tumor K98450-129-R-PDC patient-derived colon adenocarcinoma cell line growth inhibition [RAS]
# condition description: second compound 0.0949 µM; first compound 0.1 µM; active compounds read low
# Source text: RAS pathway inhibitors in Combinations in Complex Spheroids A high-throughput screen of multi-cell type tumor spheroids was designed to identify active combinations of RAS pathway inhibitors and targeted small molecules. Complex spheroids include a stromal component modeled by human endothelial cells (HUVEC) and fibroblasts modeled by human mesenchymal stem cells (MSCs). […] Compounds. […] If the clinical Cmax for an agent had not been determined, the highest concentration tested was 10 microM. […]
For each entry below, report its viability, T/C value.
One number for each entry, in %.

Solved entries:
1) Cc1nc(N2CCC3(CC2)COC(C)C3N)c(CO)nc1Sc1ccnc(N)c1Cl (stereo not drawn) + CCn1c(-c2cccnc2C(C)OC)c2c3cc(ccc31)N1CCOC(CC(NC(=O)C(C(C)C)N(C)C(=O)C3(F)CCN(C(=O)C#CC(C)(C)N(C)C)CC3)C(=O)N3CCCC(N3)C(=O)OCC(C)(C)C2)C1 :: 16
2) C=CC(=O)Nc1cc(Nc2nccc(-c3cn(C)c4ccccc34)n2)c(OC)cc1N(C)CCN(C)C + CCn1c(-c2cc(N3CCN(C)CC3)cnc2C(C)OC)c2c3cc(ccc31)-c1csc(n1)CC(NC(=O)C1CC1C)C(=O)N1CCCC(N1)C(=O)OCC(C)(C)C2 :: 10.6
3) CC(C)n1nc(-c2ccc3oc(N)nc3c2)c2c(N)ncnc21 + CCn1c(-c2cccnc2C(C)OC)c2c3cc(ccc31)N1CCOC(CC(NC(=O)C(C(C)C)N(C)C(=O)C3(F)CCN(C(=O)C#CC(C)(C)N(C)C)CC3)C(=O)N3CCCC(N3)C(=O)OCC(C)(C)C2)C1 :: 22.7
4) CCC(CC)c1cc(NC2CCC(N)C2)n2nccc2n1 (stereo not drawn) + CCn1c(-c2cc(N3CCN(C)CC3)cnc2C(C)OC)c2c3cc(ccc31)-c1csc(n1)CC(NC(=O)C1CC1C)C(=O)N1CCCC(N1)C(=O)OCC(C)(C)C2 :: 20.8
5) CC(Nc1ccc2c(c1)OCCn1cc(N3C(=O)OCC3C(F)F)nc1-2)C(N)=O (stereo not drawn) + CCn1c(-c2cc(N3CCN(C)CC3)cnc2C(C)OC)c2c3cc(ccc31)-c1csc(n1)CC(NC(=O)C1CC1C)C(=O)N1CCCC(N1)C(=O)OCC(C)(C)C2 :: 15.9
6) C=CC(=O)N1CCN(c2nc(OCC3CCCN3C)nc3c(F)c(-c4nc(N)cc(C)c4C(F)(F)F)c(Cl)cc23)C(C)C1 (stereo not drawn) + CCn1c(-c2cc(N3CCN(C)CC3)cnc2C(C)OC)c2c3cc(ccc31)-c1csc(n1)CC(NC(=O)C1CC1C)C(=O)N1CCCC(N1)C(=O)OCC(C)(C)C2 :: 14.7
7) O=C(c1ccc(F)c(F)c1Nc1ccc(I)cc1F)N1CC(O)([C@@H]2CCCCN2)C1 + CCn1c(-c2cccnc2C(C)OC)c2c3cc(ccc31)N1CCOC(CC(NC(=O)C(C(C)C)N(C)C(=O)C3(F)CCN(C(=O)C#CC(C)(C)N(C)C)CC3)C(=O)N3CCCC(N3)C(=O)OCC(C)(C)C2)C1 :: 10.6

Pending molecule:
Recorded viability, T/C for O=C(c1ccc(F)c(F)c1Nc1ccc(I)cc1F)N1CC(O)([C@@H]2CCCCN2)C1 + CCn1c(-c2cc(N3CCN(C)CC3)cnc2C(C)OC)c2c3cc(ccc31)-c1csc(n1)CC(NC(=O)C1CC1C)C(=O)N1CCCC(N1)C(=O)OCC(C)(C)C2 , please? 2.95

* * *

# Test system: K98450-129-R-PDC complex spheroid growth, percent test/control
# experiment notes: Anticancer human tumor K98450-129-R-PDC cell line growth inhibition [RAS];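 note: luminescence used as a proxy for viable cell amount; spheroids exposed to agents for seven days before the viability readout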
# condition description: second compound 0.00949 µM; first compound 10 µM; active compounds read low
value type: viability, T/C (%)
Answers are plain numbers, in %.

1. C[C@@H](NC(=O)c1ncnc(N)c1Cl)c1ncc(C(=O)Nc2cc(C(F)(F)F)c(Cl)cn2)s1 + CCn1c(-c2cccnc2C(C)OC)c2c3cc(ccc31)N1CCOC(CC(NC(=O)C(C(C)C)N(C)C(=O)C3(F)CCN(C(=O)C#CC(C)(C)N(C)C)CC3)C(=O)N3CCCC(N3)C(=O)OCC(C)(C)C2)C1 :: 48.6

Entry Cc1nc(N2CCC3(CC2)COC(C)C3N)c(CO)nc1Sc1ccnc(N)c1Cl (configuration not stated) + CCn1c(-c2cccnc2C(C)OC)c2c3cc(ccc31)N1CCOC(CC(NC(=O)C(C(C)C)N(C)C(=O)C3(F)CCN(C(=O)C#CC(C)(C)N(C)C)CC3)C(=O)N3CCCC(N3)C(=O)OCC(C)(C)C2)C1 , system K98450-129-R-PDC complex spheroid growth, percent test/control: what viability, T/C was measured? 6.2

* * *

# Tested on: K98450-129-R-PDC complex spheroid growth, percent test/control
# experiment notes: Anticancer human tumor K98450-129-R-PDC cell line growth inhibition [RAS];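 note: luminescence used as a proxy for viable cell amount; spheroids exposed to agents for seven days before the viability readout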
# condition description: second compound 0.0316 µM; first compound 1 µM; active compounds read low
# binning rule on viability, T/C: low range = under 20%, mid range = from 20% up to 60%, high range = 60% and over

Here are 3 molecules together with their reported answers.
1) C=CC(=O)Nc1cc(Nc2nccc(-c3cn(C)c4ccccc34)n2)c(OC)cc1N(C)CCN(C)C + C=CC(=O)N1CCN(c2nc(OCC3CCCN3C)nc3c(F)c(-c4nc(N)cc(C)c4C(F)(F)F)c(Cl)cc23)C(C)C1 :: low range
2) Nc1ccn(C2OC(CO)C(O)C2(F)F)c(=O)n1 (centres undefined) + C=CC(=O)N1CCN(c2nc(OCC3CCCN3C)nc3c(F)c(-c4nc(N)cc(C)c4C(F)(F)F)c(Cl)cc23)C(C)C1 :: low range
3) NC1c2ccccc2OC12CCN(c1cnc3c(N4CCCc5ncccc54)n[nH]c3n1)CC2 (centres undefined) + C=CC(=O)N1CCN(c2nc(OCC3CCCN3C)nc3c(F)c(-c4nc(N)cc(C)c4C(F)(F)F)c(Cl)cc23)C(C)C1 :: low range

Classify this molecule: CC(C)NCC(C(=O)N1CCN(c2ncnc3c2C(C)CC3O)CC1)c1ccc(Cl)cc1 (centres undefined) + C#Cc1c(F)ccc2cc(O)cc(-c3ncc4c(N5CC6CCC(C5)N6)nc(OCC56CCCN5CC(F)C6)nc4c3F)c12 high range

* * *

Field: viability, T/C. Provide a value for each of the molecules that follow.
# Tested on: K98450-129-R-PDC complex spheroid growth, percent test/control
# experiment notes: Anticancer human tumor K98450-129-R-PDC cell line growth inhibition [RAS];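 note: luminescence used as a proxy for viable cell amount; spheroids exposed to agents for seven days before the viability readout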
# condition description: second compound 0.0316 µM; first compound 1 µM; active compounds read low
Answers are plain numbers, in %.

// known answers, use as guide
1. C[C@@H](NC(=O)c1ncnc(N)c1Cl)c1ncc(C(=O)Nc2cc(C(F)(F)F)c(Cl)cn2)s1 + C#Cc1c(F)ccc2cc(O)cc(-c3ncc4c(N5CC6CCC(C5)N6)nc(OCC56CCCN5CC(F)C6)nc4c3F)c12 :: 126
2. CC(Nc1ccc2c(c1)OCCn1cc(N3C(=O)OCC3C(F)F)nc1-2)C(N)=O (stereo not drawn) + C=CC(=O)N1CCN(c2nc(OCC3CCCN3C)nc3c(F)c(-c4nc(N)cc(C)c4C(F)(F)F)c(Cl)cc23)C(C)C1 :: 51.4

Now look at this one.
So what does the record say about viability, T/C for Nc1ccn(C2OC(CO)C(O)C2(F)F)c(=O)n1 (stereo not drawn) + C#Cc1c(F)ccc2cc(O)cc(-c3ncc4c(N5CC6CCC(C5)N6)nc(OCC56CCCN5CC(F)C6)nc4c3F)c12 ? 29.6

* * *

# Tested on: K98450-129-R-PDC complex spheroid growth, percent test/control
# experiment notes: Anticancer human tumor K98450-129-R-PDC cell line growth inhibition [RAS]; active = viability on the fitted dose curve at most 10% of control; inactive = the rest;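 note: luminescence used as a proxy for viable cell amount; spheroids exposed to agents for seven days before the viability readout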
# condition description: second compound 0.000949 µM; first compound 10 µM
# output must be one of 1.0 = active, 0.0 = inactive

Solved cases below.
1. Cc1nc(N2CCC3(CC2)COC(C)C3N)c(CO)nc1Sc1ccnc(N)c1Cl (centres undefined) + CCn1c(-c2cccnc2C(C)OC)c2c3cc(ccc31)N1CCOC(CC(NC(=O)C(C(C)C)N(C)C(=O)C3(F)CCN(C(=O)C#CC(C)(C)N(C)C)CC3)C(=O)N3CCCC(N3)C(=O)OCC(C)(C)C2)C1 :: 1.0
2. CC(C)NCC(C(=O)N1CCN(c2ncnc3c2C(C)CC3O)CC1)c1ccc(Cl)cc1 (centres undefined) + CCn1c(-c2cccnc2C(C)OC)c2c3cc(ccc31)N1CCOC(CC(NC(=O)C(C(C)C)N(C)C(=O)C3(F)CCN(C(=O)C#CC(C)(C)N(C)C)CC3)C(=O)N3CCCC(N3)C(=O)OCC(C)(C)C2)C1 :: 0.0
3. CC1(O)CCCC1n1c(=O)c(C(F)F)cc2cnc(NC3CCN(S(C)(=O)=O)CC3)nc21 (centres undefined) + CCn1c(-c2cccnc2C(C)OC)c2c3cc(ccc31)N1CCOC(CC(NC(=O)C(C(C)C)N(C)C(=O)C3(F)CCN(C(=O)C#CC(C)(C)N(C)C)CC3)C(=O)N3CCCC(N3)C(=O)OCC(C)(C)C2)C1 :: 0.0

Kindly consider the entry below.
Could you kindly confirm the outcome this assay logged for C[C@@H](NC(=O)c1ncnc(N)c1Cl)c1ncc(C(=O)Nc2cc(C(F)(F)F)c(Cl)cn2)s1 + CCn1c(-c2cc(N3CCN(C)CC3)cnc2C(C)OC)c2c3cc(ccc31)-c1csc(n1)CC(NC(=O)C1CC1C)C(=O)N1CCCC(N1)C(=O)OCC(C)(C)C2 ? 0.0
